Hello, the source for this data is patent US20020042393A1, in case you need it.

Assay: Proportion of particles of 75 μm or more (Air Jet Sieve)
Type: physicochemical
Settings: excipient powder

{"columns": ["Compound", "Proportion of particles of 75 μm or more"],
 "data": [
  ["OC[C@H]1O[C@H](O[C@H]2O[C@H](CO)[C@@H](O)[C@H](O)[C@H]2O)[C@H](O)[C@@H](O)[C@@H]1O [Trehalose I, trehalose]", "95%"],
  ["OC[C@@H](O)[C@@H](O)[C@H](O)[C@H](O)CO [Mannit P, reference compound]", "20%"],
  ["OC[C@H]1O[C@@H](O[C@H]2[C@H](O)[C@@H](O)C(O)O[C@@H]2CO)[C@H](O)[C@@H](O)[C@H]1O (stereo partly shown) [100-Mesh lactose, lactose, reference compound]", "76%"],
  ["OC[C@H]1O[C@H](O[C@H]2O[C@H](CO)[C@@H](O)[C@H](O)[C@H]2O)[C@H](O)[C@@H](O)[C@@H]1O [Trehalose K, trehalose]", "21%"],
  ["OC[C@H]1O[C@H](O[C@H]2O[C@H](CO)[C@@H](O)[C@H](O)[C@H]2O)[C@H](O)[C@@H](O)[C@@H]1O [Trehalose H, trehalose]", "91%"],
  ["OC[C@H]1O[C@H](O[C@H]2O[C@H](CO)[C@@H](O)[C@H](O)[C@H]2O)[C@H](O)[C@@H](O)[C@@H]1O [Trehalose J, trehalose]", "40%"],
  ["OC[C@H]1O[C@@H](O[C@H]2[C@H](O)[C@@H](O)C(O)O[C@@H]2CO)[C@H](O)[C@@H](O)[C@H]1O (stereo partly shown) [200M lactose, lactose, reference compound]", "15%"]
]}

---

Experiment: Water content (Karl Fisher) of tablets before and after storage
Assay type: physicochemical
Settings: tablets compressed at 500 kg/cm^2; 3 days at 40° C. and 75% RH

{"columns": ["Smiles representation", "Water content / %"],
 "data": [
  ["OC[C@H]1O[C@H](O[C@H]2O[C@H](CO)[C@@H](O)[C@H](O)[C@H]2O)[C@H](O)[C@@H](O)[C@@H]1O", 9.8]
]}

---

Test: Water content (Karl Fisher) of tablets before and after storage
Type: physicochemical
Conditions: tablets compressed at 500 kg/cm^2; 0 day; listed as B
Observed property: Water content (%)

{"columns": ["Smiles representation", "Observed property", "Value"],
 "data": [
  ["OC[C@H]1O[C@H](O[C@H]2O[C@H](CO)[C@@H](O)[C@H](O)[C@H]2O)[C@H](O)[C@@H](O)[C@@H]1O", "Water content", 9.8]
]}

---

Reported Average particle size is given for each of the following compounds.
Experiment: Average particle size (sieving, 50% cumulative weight)
Assay type: physicochemical
Details: excipient powder
Observed property: Average particle size (μm)

{"columns": ["Compound", "Value"],
 "data": [
  ["OC[C@H]1O[C@@H](O[C@H]2[C@H](O)[C@@H](O)C(O)O[C@@H]2CO)[C@H](O)[C@@H](O)[C@H]1O (stereo partly shown) [200M lactose, lactose, reference compound]", 60],
  ["OC[C@H]1O[C@@H](O[C@H]2[C@H](O)[C@@H](O)C(O)O[C@@H]2CO)[C@H](O)[C@@H](O)[C@H]1O (stereo partly shown) [100-Mesh lactose, lactose, reference compound]", 104],
  ["OC[C@H]1O[C@H](O[C@H]2O[C@H](CO)[C@@H](O)[C@H](O)[C@H]2O)[C@H](O)[C@@H](O)[C@@H]1O [Trehalose I, trehalose]", 280],
  ["OC[C@H]1O[C@H](O[C@H]2O[C@H](CO)[C@@H](O)[C@H](O)[C@H]2O)[C@H](O)[C@@H](O)[C@@H]1O [Trehalose H, trehalose]", 180],
  ["OC[C@H]1O[C@H](O[C@H]2O[C@H](CO)[C@@H](O)[C@H](O)[C@H]2O)[C@H](O)[C@@H](O)[C@@H]1O [Trehalose K, trehalose]", 50],
  ["OC[C@@H](O)[C@@H](O)[C@H](O)[C@H](O)CO [Mannit P, reference compound]", 47],
  ["OC[C@H]1O[C@H](O[C@H]2O[C@H](CO)[C@@H](O)[C@H](O)[C@H]2O)[C@H](O)[C@@H](O)[C@@H]1O [Trehalose J, trehalose]", 60]
]}
